Assay: Equilibrium solubility in bio-relevant media (FaSSGF pH 1.6, FaSSIF pH 6.5)
Format: physicochemical
Details: fasted state simulated gastric fluid (FaSSGF), pH 1.6, fassgf or other biorelevant, thermodynamic from solid, FaSSGF (pH 1.6); read-out: Solubility
# solubility listing for each entry below
PARAMETER: solubility (µg/mL)

{"columns": ["COMPOUND", "PARAMETER", "SIGN", "MEASURED NUMBER"],
 "data": [
  ["CCS(=O)(=O)O.C[C@]1(O)C[C@@H](c2nc(-c3ccc4ccc(-c5ccccc5)nc4c3)c3c(N)nccn32)C1 [Esylate 1]", "solubility", "≥", 61600],
  ["C[C@]1(O)C[C@@H](c2nc(-c3ccc4ccc(-c5ccccc5)nc4c3)c3c(N)nccn32)C1.O=P(O)(O)O [Phosphate 1]", "solubility", "=", 9510],
  ["C[C@]1(O)C[C@@H](c2nc(-c3ccc4ccc(-c5ccccc5)nc4c3)c3c(N)nccn32)C1.O=C(O)C[C@H](O)C(=O)O [L-Malate 1]", "solubility", "=", 8130],
  ["C[C@]1(O)C[C@@H](c2nc(-c3ccc4ccc(-c5ccccc5)nc4c3)c3c(N)nccn32)C1 [Linsitinib free base, reference compound]", "solubility", "=", 7670]
]}
